biological target: DDR2 (Homo sapiens (Human), UniProt Q16832); assay: LanthaScreen Eu kinase activity assay, DDR2; assay type: biochemical; details: 100 nM ATP; cells without unit
Sequence (Q16832 22-855): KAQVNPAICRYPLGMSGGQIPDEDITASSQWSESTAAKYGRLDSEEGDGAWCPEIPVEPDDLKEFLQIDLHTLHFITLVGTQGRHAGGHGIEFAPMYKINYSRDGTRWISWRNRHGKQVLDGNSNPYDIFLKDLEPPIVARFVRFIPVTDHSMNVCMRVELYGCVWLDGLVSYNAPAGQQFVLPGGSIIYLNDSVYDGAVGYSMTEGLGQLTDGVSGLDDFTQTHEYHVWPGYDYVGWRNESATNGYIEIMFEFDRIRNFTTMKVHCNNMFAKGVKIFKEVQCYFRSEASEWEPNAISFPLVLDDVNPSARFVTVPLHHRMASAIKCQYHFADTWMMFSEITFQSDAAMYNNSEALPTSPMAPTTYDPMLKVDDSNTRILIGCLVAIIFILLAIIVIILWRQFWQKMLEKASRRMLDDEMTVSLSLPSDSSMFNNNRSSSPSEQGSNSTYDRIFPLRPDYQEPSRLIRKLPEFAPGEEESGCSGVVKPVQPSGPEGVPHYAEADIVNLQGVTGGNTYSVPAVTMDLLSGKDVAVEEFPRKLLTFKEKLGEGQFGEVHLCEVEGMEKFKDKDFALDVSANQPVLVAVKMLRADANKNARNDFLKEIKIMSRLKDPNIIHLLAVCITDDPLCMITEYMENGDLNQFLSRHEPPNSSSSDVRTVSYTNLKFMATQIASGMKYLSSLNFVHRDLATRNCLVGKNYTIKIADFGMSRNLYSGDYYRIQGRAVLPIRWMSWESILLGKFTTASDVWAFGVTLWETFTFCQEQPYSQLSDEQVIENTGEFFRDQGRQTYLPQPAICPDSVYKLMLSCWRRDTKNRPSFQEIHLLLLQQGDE
QUANTITY_NAME: IC50 (nM)

The cases that follow already have their IC50 on record.
COMPOUND | IC50 [nM]
CC1CN(c2cncnc2)Cc2cc(C(=O)Nc3cc(CN4CC[C@H](N(C)C)C4)cc(C(F)(F)F)c3)ccc21 (some centres unmarked) [Example 25] | 862
CC1CN(c2cncnc2)Cc2cc(C(=O)Nc3cc(CN4CCN(C)CC4)cc(C(C)(C)C)c3)ccc21 (centres unmarked) [Example 28] | 940
CC1CN(c2cncnc2)Cc2cc(C(=O)Nc3ccc(CN4CCN(C)CC4)c(C(F)(F)F)c3)ccc21 (centres unmarked) [Example 12] | 334

(a) CC1CN(c2cncnc2)Cc2cc(C(=O)Nc3cc(CN4CCN(C)CC4)cc(C4CCCC4)c3)ccc21 (centres unmarked) [Example 32]
(b) CC1CN(c2cncnc2)Cc2cc(C(=O)Nc3cc(CN4CCN(C)CC4)cc(C4CCCCC4)c3)ccc21 (centres unmarked) [Example 22]
Prompt line: Of the two listed items, a and b , which carries the larger IC50 figure? // output: label of the selected item
Response line: b
